The measured values listed here are drawn from PubChem BioAssay.

molecular target: Receptor tyrosine-protein kinase erbB-2 (Homo sapiens); assay: reducers of endogenous Her2 protein level, primary screen, SKBR3 breast tumor cells, AlphaScreen, ATP viability (AID 461); conditions: 18-24 h, at 10 µM;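 further: lower value means less Her2 protein in the cells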
Activity calls are given as the source filed them.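 How the source made its calls: active means Her2 level under about 52% in both replicate screens, with viability over 70% of control (limit read from the data); inconclusive means Her2 under the limit in one screen only, or viability under 70%; inactive means Her2 level above the set limit.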
Hello, when you answer, please use one of the following outcomes: true (1) = active, false (0) = inactive

Answered cases to consult:
compound	assigned_label
COc1ccc(C(=O)N2CCN(S(=O)(=O)c3cc(Cl)ccc3OC)CC2)cc1	false (0)
O=c1c2c(nc3nc(COc4ccccc4)[nH]n13)CCC2	false (0)
CCOc1ccc2cc(C#N)c(SCC(=O)N3CCCC3)nc2c1	false (0)
CC1(C)COCN1S(=O)(=O)c1ccc(C(=O)Nc2nnc(-c3ccc(Cl)s3)o2)cc1	false (0)
CCOC(=O)c1ccccc1NC(=O)CSc1nnc(COc2ccccc2C)n1C	false (0)

Hey, what did the test say about `COc1cccc(-n2nc(C(=O)Nc3ccc4c(c3)OCO4)c3ccccc3c2=O)c1` ?
false (0)

Hey, what did the test say about CCN(CCCNC(=O)CC1Oc2ccc(C)cc2NC1=O)Cc1ccccc1 (stereo not given) ?
false (0)

Hey, what did the test say about `CCn1c(SCC(=O)Nc2ccc(C(C)=O)cc2)nc2ccccc21` ?
false (0)

Hey, what did the test say about `COC(=O)c1cc(NS(=O)(=O)c2ccc3c(c2)CCC(=O)N3)cc(C(=O)OC)c1` ?
false (0)

Hey, what did the test say about `NS(=O)(=O)c1ccc(NCc2c(F)cccc2Cl)cc1` ?
false (0)

----------
assay: reversal of MRP1-mediated doxorubicin resistance, pilot screen, H69AR cells, doxorubicin co-treatment (AID 601); conditions: H69AR cells, CellTiter-Glo, 72 h; compound alone cytotoxicity; at 10 µM
compounds and their reported viability
Please give a number only; it is taken to be in %.

compound	measured
CCC(=O)N1CCc2cc(S(=O)(=O)CCC(=O)Nc3c(C)n(C)n(-c4ccccc4)c3=O)ccc21	94

Give recorded viability. CCC(Sc1ncccc1C(=O)O)C(=O)N1CCCC1 (centres undefined)
101

Give recorded viability. `Cc1cc(Nc2ccccc2N2CCOCC2)n2ncnc2n1`
97.1

Give recorded viability. `COc1ccccc1OCCOc1ccccc1/C=N/n1cnnc1`
70.9

Give recorded viability. `O=C(O)CN1C(=O)CNC1=O`
97.6

Give recorded viability. COC(=O)C(C)NC(=O)C12CC3CC(CC(C3)C1)C2 (centres undefined)
99.7

Give recorded viability. `c1cc(CNc2ccc3c(c2)OCO3)ccn1`
90

Give recorded viability. CCc1[nH]nc2c1C(c1ccncc1)C(C#N)=C(N)O2 (centres undefined)
95.9

Give recorded viability. `Cc1ccc(S(=O)(=O)N[C@@H](C)C(=O)N2CCC(C(=O)N3CCC[C@H]3C(=O)O)CC2)cc1`
102

Give recorded viability. `O=C(Nc1ccc2c(c1)OCCO2)c1ccco1`
86.5

Give recorded viability. `CC(C)(C)n1nnnc1CN1CCN(C2CCCC2)CC1`
104

Give recorded viability. `O=C(O)CCC(=O)c1c[nH]c2ccccc12`
95.6

----------
experiment: SK-BR-3 cell growth inhibitors, pilot screen, 24 h, human (AID 572); conditions: SK-BR-3 viability, CellTiter-Glo luminescence, at 10 µM, stronger effect = lower value;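 further: compound exposure lasted between 18 and 24 h rather than exactly 24 h; 100% = carrier-treated control wells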
endpoint_label: viability (%)
Please give a number only; it is taken to be in %.

Solved cases below.
compound	endpoint_label	measurement_unit	measured
COC(=O)c1c(-c2cccs2)csc1NC(=O)CN1CCOCC1	viability	%	103
Cc1nnc(C)c2c(C)n(-c3ccc(Br)cc3)c(C)c12	viability	%	110
COc1ccc2[nH]c(=O)c(CNC3CCCCC3)cc2c1	viability	%	101
O=C(CCSc1nc(-c2ccco2)cc(C(F)(F)F)n1)Nc1ccc2c(c1)OCO2	viability	%	83
c1ccc(-n2cnc3cc(NCc4ccccn4)ccc32)cc1	viability	%	109
O=C(NCc1cccnc1)c1ccc2c(c1)OCO2	viability	%	74

Give recorded viability. `O=S(=O)(Cc1ccccc1)N1CCCCCC1`
93

Give recorded viability. `CCOC(=O)c1cnn(-c2cc(C)nc3c(-c4ccccc4)c(C)nn23)c1N`
120

Give recorded viability. `CC1(C)Cc2c(c(N3CCOCC3)nc3sc(C#N)c(N)c23)CS1`
92

Give recorded viability. `Cc1cc2c(cc1C)C(=O)NC(C)(C)C2`
104

Give recorded viability. `COc1ccc2oc(=O)c(C(=O)N3CCN(c4ccccc4F)CC3)cc2c1`
97.5

Give recorded viability. `Cc1cc(NC(=O)CCC(=O)N(CC(=O)NC2CCCC2)Cc2ccc(F)cc2)no1`
101

----------
compounds and their reported viability
test: reversal of MRP1-mediated doxorubicin resistance, pilot screen, H69AR cells, doxorubicin co-treatment (AID 601); conditions: H69AR cells, CellTiter-Glo, 72 h; compound alone cytotoxicity; at 10 µM
Please give a number only; it is taken to be in %.

Solved cases below.
compound	endpoint_label	measurement_unit	measured
O=C(NCCCNC1CCCCC1)c1ccc(/C=N/O)nc1	viability	%	103
Cc1ccc(C(=O)N2CCN(C(=O)c3ccc(C)c(C)c3)C(C)C2)cc1C (stereo unspecified)	viability	%	82.2
COc1ccc(CNc2ccc(C(=O)O)cc2)cc1	viability	%	91.7

Give recorded viability. `CCn1nnnc1NCc1cccn1C`
95.9

Give recorded viability. CC(C)CCNC(=O)C(c1cccs1)N(CC1CCCO1)C(=O)Cn1nnc2ccccc21 (stereo unspecified)
89.8

Give recorded viability. COc1ccc(/C(O)=C2/C(=O)C(=O)N(CCCN(C)C)C2c2ccco2)cc1Cl (stereo unspecified)
95.8

Give recorded viability. `O=C(CN1CCCN(S(=O)(=O)c2ccc(Br)cc2)CC1)Nc1ccc2cn[nH]c2c1`
7.15

Give recorded viability. `Cc1c(C(=O)O)oc2ccc(S(=O)(=O)NCc3ccccc3)cc12`
106

Give recorded viability. `COc1ccc(CCNC(=O)CSc2nncn2N)cc1OC`
96.4

Give recorded viability. O=C(O)C1CC=CCC1C(=O)Nc1cc(Cl)ccc1Cl (stereo unspecified)
93.5

Give recorded viability. CC(=O)c1cccc(NC(=O)N2CCCC2C(=O)NCc2ccc(C)cc2)c1 (stereo unspecified)
95.6

----------
test: 384-well plate pilot, post-Golgi transport modulator project, inhibition of yeast transport mutant growth (AID 636); details: absorbance 615 nm, about 18 h, stronger effect = higher value
endpoint_label: inhibition (%)
Please give a number only; it is taken to be in %.

Solved cases below.
molecule	inhibition [%]
O=C(CCn1c(=O)sc2ccccc21)Nc1cccnc1	-3.87
COCCn1c(NCc2ccc(C)cc2)nc2c1c(=O)[nH]c(=O)n2C	-2.27
O=C(Cc1cccs1)Nc1nnc(CCc2ccccc2)s1	-0.78
CCn1cc(C(=O)N=c2sc3ccccc3n2C)c(=O)c2ccc(C)nc21	1.41
COCCn1nnnc1C(C(C)C)N1CCN(C(=O)c2ccco2)CC1 (centres undefined)	3.77

Give recorded inhibition. CC1Cc2nc(SCC(=O)Nc3ccc(F)cc3F)n(C)c(=O)c2S1 (centres undefined)
-1.78

Give recorded inhibition. `COc1ccc(OCc2cccc(C(=O)O)c2)cc1`
-4.47

Give recorded inhibition. `O=[n+]1c2c(n([O-])c3c1CCCC3)CCCC2`
-0.65

Give recorded inhibition. CCn1c(=O)cc(SCC(=O)NCC2CCCO2)c2ccccc21 (centres undefined)
-3.03

Give recorded inhibition. `O=C(CSc1ncnc2c1oc1ccccc12)Nc1ccccc1F`
-2.27

Give recorded inhibition. `C=CCn1c(SCC(=O)O)nnc1-c1cccc(Cl)c1`
-5.19

Give recorded inhibition. `CCn1c(SCC(N)=O)nc2c1c(=O)n(C)c(=O)n2C`
-2.63

Give recorded inhibition. `COc1ccc(NC(=O)CN2CCCCC2)cc1`
-5.58

Give recorded inhibition. `O=C(CSc1nc2ccccc2s1)N1CCN(C(=O)c2ccco2)CC1`
-3.82

Give recorded inhibition. `O=C(CN1C(=O)CSC1=O)N1CCc2ccccc2C1`
-2.34

----------
compounds and their reported inhibition
assay: 384-well plate pilot, post-Golgi transport modulator project, inhibition of yeast transport mutant growth (AID 636); details: absorbance 615 nm, about 18 h, stronger effect = higher value
Please give a number only; it is taken to be in %.

Solved cases below.
compound	measured
CCC(=O)Nc1c(C#N)c2nc3ccccc3nc2n1-c1ccccc1C	-5.2
O=C(NC1CCCCCC1)C1c2ccccc2C(=O)N1Cc1cccnc1 (configuration not stated)	0.13
Cc1nnc(SCc2ccccc2)n1N	-0.67
Cc1nn(-c2ccccc2)c2sc(C(=O)N3CCOCC3)cc12	-6
CCOC(=O)CC(=O)Nc1c(C)cc(C)cc1C	2.57

Give recorded inhibition. O=C(c1ccc(Cl)cc1)N(Cc1cccs1)C1CCS(=O)(=O)C1 (configuration not stated)
-3.29

Give recorded inhibition. `C/C=C/c1ccc(OCCn2cncn2)c(OC)c1`
0.14

Give recorded inhibition. Cc1cc(C)c(NC(=O)C2CSCCS2)c(C)c1 (configuration not stated)
-3.82

Give recorded inhibition. `O=C(O)CCN1C(=O)c2ccccc2C1=O`
-2.24
